- Study System: PIM2 (Homo sapiens)
- Construct: purchased ProQinase, Freiburg, Germany 0223-0000-1
- Sequence (Q9P1W9 whole entry): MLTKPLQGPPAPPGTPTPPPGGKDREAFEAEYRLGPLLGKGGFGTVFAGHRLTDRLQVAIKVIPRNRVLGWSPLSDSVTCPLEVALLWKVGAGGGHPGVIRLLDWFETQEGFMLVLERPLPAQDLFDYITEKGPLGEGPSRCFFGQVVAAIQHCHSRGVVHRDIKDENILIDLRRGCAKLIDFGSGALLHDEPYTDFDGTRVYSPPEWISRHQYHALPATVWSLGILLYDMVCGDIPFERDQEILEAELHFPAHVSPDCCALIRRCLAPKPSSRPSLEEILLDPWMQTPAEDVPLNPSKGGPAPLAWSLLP
- Test: LANCE Ultra kinase assay, PIM2
- Assay type: biochemical
- Condition: ATP 0.1 mM
What pIC50 was measured for each of the following?
Answers are plain numbers, as −log10 of the molar value.

>>> readout_value("O=C1NC(=O)c2c1c1c3cc(F)c(O)cc3[nH]c1c1c2c2cc(F)c(O)cc2n1CCN1CCOCC1")
7.89

Dear colleague, could you please provide pIC50 for the compounds listed below?
1. O=C1NC(=O)c2c1c1c3ccccc3[nH]c1c1c2c2cc(F)c(O)cc2n1CCN1CCOCC1
2. O=C1NC(=O)c2c1c1c3ccc(O)cc3[nH]c1c1c2c2ccc(O)cc2n1CCN1CCOCC1
3. C[C@@H]1CCC[C@H](C)N1CCn1c2cc(O)c(F)cc2c2c3c(c4c5cc(F)c(O)cc5[nH]c4c21)C(=O)NC3=O
4. O=C1NC(=O)c2c1c1c3ccc(O)cc3[nH]c1c1c2c2ccc(O)cc2n1CCN1CCCCC1

[reply]
1: 8.49; 2: 7.44; 3: 7.43; 4: 7.30

----------
- Study System: PIM1 (Homo sapiens)
- Construct: purchased ProQinase, Freiburg, Germany 0186-0000-1
- Sequence (P11309 whole entry): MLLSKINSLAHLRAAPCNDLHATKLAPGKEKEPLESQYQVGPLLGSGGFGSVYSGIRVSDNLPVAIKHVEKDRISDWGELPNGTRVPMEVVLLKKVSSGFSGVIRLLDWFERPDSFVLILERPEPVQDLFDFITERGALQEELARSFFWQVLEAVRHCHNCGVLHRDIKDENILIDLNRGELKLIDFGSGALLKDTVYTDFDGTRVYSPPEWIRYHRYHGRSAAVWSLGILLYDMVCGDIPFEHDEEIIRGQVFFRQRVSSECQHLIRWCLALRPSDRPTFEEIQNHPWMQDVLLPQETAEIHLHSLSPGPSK
- Test: LANCE Ultra kinase assay, PIM1
- Format: biochemical
- Condition: ATP 0.1 mM
- Experimental: The second assay used was Perkin Elmer's LANCE® Ultra kinase assay which uses a ULight™-labeled peptide substrate and an appropriate Europium-labeled anti-phospho antibody. […] The assay was performed in 384-well plates in two steps: PIM kinases were mixed with the ULight-substrate (CREBtide) in buffer and incubated for 10 min. […] The mixture was allowed to incubate for 30 min to allow binding of the antibody to the phosphorylated site before the plate was read using a Tecan microplate reader […]
Can you tell me IC50 for the items I'm about to list?
Answers are plain numbers, in nM.

The cases that follow already have their IC50 on record.
>>> readout_value("O=C1NC(=O)c2c1c1c3ccc(O)cc3[nH]c1c1c2c2ccc(O)cc2n1CCN1CCCCC1")
0.7
>>> readout_value("C[C@@H]1CCC[C@H](C)N1CCn1c2ccc(F)cc2c2c3c(c4c5cc(F)ccc5[nH]c4c21)C(=O)NC3=O")
3
>>> readout_value("O=C1NC(=O)c2c1c1c3cc(F)ccc3[nH]c1c1c2c2cc(F)ccc2n1CCN1CCOCC1")
4

[ask] Fill in reported IC50 for this entry: "O=C1NC(=O)c2c1c1c3ccc(O)cc3[nH]c1c1c2c2ccc(O)cc2n1CCN1CCOCC1"
[reply] 0.81

----------
So I've got a bunch of molecules here, and I need their IC50 values.
- Study System: PIM1 (Homo sapiens)
- Construct: purchased ProQinase, Freiburg, Germany 0186-0000-1
- Test: LANCE Ultra kinase assay, PIM1
- Type: biochemical
- Condition: ATP 0.1 mM
State the result as a value with its unit after it.

Reference set (3 entries):
>>> readout_value("O=C1NC(=O)c2c1c1c3cc(F)c(O)cc3[nH]c1c1c2c2cc(F)c(O)cc2n1CCN1CCOCC1 [Compound 37]")
"700 pM"
>>> readout_value("O=C1NC(=O)c2c1c1c3cc(F)ccc3[nH]c1c1c2c2cc(F)ccc2n1CCN1CCCCC1 [Compound 51]")
"3000 pM"
>>> readout_value("C[C@@H]1CCC[C@H](C)N1CCn1c2cc(O)c(F)cc2c2c3c(c4c5cc(F)c(O)cc5[nH]c4c21)C(=O)NC3=O [Compound 59]")
"100 pM"

Read the next record carefully.
[ask] Complete the entry with IC50 for O=C1NC(=O)c2c1c1c3ccccc3[nH]c1c1c2c2cc(F)c(O)cc2n1CCN1CCOCC1 [Compound 19]
[reply] 230 pM
